B1: FOXJ1 (parent)
chain: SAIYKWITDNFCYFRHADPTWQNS

# Variants of: B1
# procedure_summary: protein stability index of a GFP-peptide fusion (GPS, HEK-293T) (PSI 1-6); higher = more stable;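 also: lentivirally expressed fusions sorted by FACS into six bins by GFP to DsRed ratio, PSI derived from sequencing read proportions per bin multiplied by bin number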
# condition_parameters: c terminus: a fixed tail appended
# protein stability index values compiled below
When you answer, write just the number.

Solved entries (count: 3):
[[record]]
mutant_id = "Q22G"
reported_result = 2.93

[[record]]
mutant_id = "Q22D"
reported_result = 2.56

[[record]]
mutant_id = "H16T"
reported_result = 2.32


Q) Specify protein stability index for "F11R" and stop.
A) 3.03

Q) For the variant "P19S" , give its measured protein stability index value.
A) 2.63

Q) Name the recorded protein stability index of the variant listed here: "P19M"
A) 4.18

Q) Give the value of protein stability index reported for the following: "A2F"
A) 4.1

Q) Hello, please tell me recorded protein stability index for this one: "A2V"
A) 2.4

Q) Identify measured protein stability index corresponding to "R15I"
A) 2.32

Q) Find the measured protein stability index of "C12P" and report it.
A) 1.97

FYI, the data here is from the supplement of paper PMC10567573.
